Data origin, for the record: PubChem BioAssay (NCI)

tested on: UACC-257 melanoma; assay: NCI-60 one-dose screen, 48 h; conditions: 10 µM unless noted
Compounds without any hit were thinned out: in the full panel of roughly 83,000, 20% have a hit. Activity calls are given as the source filed them. Rule for the calls: active = growth percent below 10; inactive = the rest.
Permitted responses: y for active, n for inactive

The following molecules have reported results that may help.
# Molecule, Label Value
records = [
    ("CCOc1cc2ncc(C#N)c(Nc3ccc(OCc4cccc(F)c4)c(Cl)c3)c2cc1NC(=O)CCCCC1CCSS1 (stereo not given)", "n"),
    ("CC(=O)c1nc2ccccc2n1CC(=O)c1cccc(Cl)c1", "n"),
    ("N#C/C(=C\\c1ccc(-c2ccc(Cl)c(Cl)c2)o1)c1nc(-c2ccco2)cs1", "n"),
]

Dear all, I need the recorded test outcome for `COc1cc(CNc2oc(-c3ccccc3)c(-c3ccccc3)c2C#N)cc(CN2CCN(C)CC2)c1O` , thank you. y

Dear all, I need the recorded test outcome for Cc1cc(N2CCCC2)nc(NC2CCCC(Nc3ccnc4cc(Cl)ccc34)C2)n1 (stereo not given) , thank you. y
